system: HL-60; assay: Cytotoxicity against human HL60 cells assessed as cell viability after 48 hrs by MTS assay; type: functional, cell-based; conditions: HL-60, 48 h
Parameter pIC50: see the listing below.
// pIC50 here means minus log10 of the molar concentration (mol/L)

Worked cases, answers included:
# Compound, Numeric Value
rows = [
    ("COC(=O)CCC(=O)[C@@]12C(=O)N[C@@H](Cc3c[nH]c4ccccc34)[C@@H]1[C@H](C)[C@@]1(C)O[C@H]1[C@@H]2/C=C/CC(C)/C=C(\\C)C=O (stereo not given in full)", 4.85),
    ("C/C(=C\\C(C)C/C=C/[C@H]1[C@@H]2O[C@]2(C)[C@@H](C)[C@H]2[C@H](Cc3c[nH]c4ccccc34)NC(=O)[C@]21C(=O)CCCO)CO (stereo not given in full)", 4.78),
    ("C/C1=C\\[C@@H](C)C/C=C/[C@H]2[C@H](O)[C@@]3(C)O[C@@]4(Cc5c[nH]c6ccccc56)NC(=O)[C@]2(C(=O)CCC(=O)C1=O)[C@H]4[C@@H]3C", 4.74),
]

Kindly consider the entry below.
stdin: Consider the compound `CC1=C[C@@H]2/C=C/C[C@H](C)/C=C(\C)C(=O)[C@@H](O)CCC(=O)[C@]23C(=O)N[C@@H](Cc2c[nH]c4ccccc24)[C@@H]3[C@@H]1C` and give its measured pIC50.
stdout: 4.90
